Target: T1, PUF4 RNA-binding domain (Saccharomyces cerevisiae, UniProt P25339 537-888)
T1 sequence: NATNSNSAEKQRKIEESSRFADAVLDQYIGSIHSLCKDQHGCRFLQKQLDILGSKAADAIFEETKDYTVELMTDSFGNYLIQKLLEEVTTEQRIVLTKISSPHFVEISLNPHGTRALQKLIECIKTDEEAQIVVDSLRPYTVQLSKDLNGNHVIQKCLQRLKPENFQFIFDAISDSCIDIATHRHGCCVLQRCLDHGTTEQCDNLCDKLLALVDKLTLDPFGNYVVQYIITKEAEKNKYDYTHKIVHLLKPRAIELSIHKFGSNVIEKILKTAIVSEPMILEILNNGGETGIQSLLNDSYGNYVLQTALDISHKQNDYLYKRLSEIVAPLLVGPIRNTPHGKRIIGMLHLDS
Test: Mg; RNA-MaP; 20 mM Na-HEPES pH 7.4, 30 mM KOAc, 0.75 mM MgCl2, 0.1% Tween-20, 5% glycerol, 0.1 mg/mL BSA, 2 mM DTT; 25 C; 0.0125-409.6 nM protein
Details: tags: N-His6-TEV cleaved; C-SNAP kept, Cy3B-labelled; label: tethered on chip by stalled RNA polymerase
propertyLabel: log10 of Kd (log10 of the value in nM)
Log10 applied to Kd; unit prior to transform: nM.

Ic_S2_P3E.1_K3.1_C3.1_H3.1_A3.1_[T5G]_[A6C]_F3.1_[A8G]_T3.1 (ssRNA) RNA: UUUGAUUAAUAUGAUAUCGUUCUUUCUUGUAGCUGUUCUUUCUCGAUAUCAUAUUAAUCUUU
2.19
Ie_S4_P5E.1_K5.1_C5.1_H5.1_[+1CTC]_A5.1_F5.1_T5.1 (ssRNA) RNA: UUUGACAACUGAUCGUUCUUUCUUCUCGUAUUAUUAUUCUUUCUCGAUCAGUUGUCUUU
2.33
Ic_S4_P3E.1_K3.1_C3.1_H3.1_A3.1_[T5C]_[A6C]_F3.1_[T7C]_T3.1 (ssRNA) RNA: UUUGACAACUGAUCGUUCUUUCUUGUACCCAUUCUUUCUCGAUCAGUUGUCUUU
2.69
Ie_S2_P5E.1_K5.1_C5.1_H5.1_A5.1_[+7CTCTC]_F5.1_T5.1 (ssRNA) RNA: UUUGAUUAAUAUGAUAUCGUUCUUUCUUGUAUUACUCUCUUAUUCUUUCUCGAUAUCAUAUUAAUCUUU
1.67

Okay, now this binder:
(Q) Suppose we examine the binder Ic_S2_P4E.1_K4.1_C4.1_H4.1_A4.1_[A6G]_F4.1_[T8C]_[A9C]_T4.1 (ssRNA) RNA: UUUGAUUAAUAUGAUAUCGUUCUUUCUUGUAUGUCCUUCUUUCUCGAUAUCAUAUUAAUCUUU ; what log10 of Kd value has been reported?
(A) 1.51

FYI, the data here is from paper PMC9352680.
